// reported IC50 for each item listed
Molecular target: human glucocorticoid receptor (GR) complex (Homo sapiens, UniProt P04150)
Sequence (P04150 whole entry, one chain of several): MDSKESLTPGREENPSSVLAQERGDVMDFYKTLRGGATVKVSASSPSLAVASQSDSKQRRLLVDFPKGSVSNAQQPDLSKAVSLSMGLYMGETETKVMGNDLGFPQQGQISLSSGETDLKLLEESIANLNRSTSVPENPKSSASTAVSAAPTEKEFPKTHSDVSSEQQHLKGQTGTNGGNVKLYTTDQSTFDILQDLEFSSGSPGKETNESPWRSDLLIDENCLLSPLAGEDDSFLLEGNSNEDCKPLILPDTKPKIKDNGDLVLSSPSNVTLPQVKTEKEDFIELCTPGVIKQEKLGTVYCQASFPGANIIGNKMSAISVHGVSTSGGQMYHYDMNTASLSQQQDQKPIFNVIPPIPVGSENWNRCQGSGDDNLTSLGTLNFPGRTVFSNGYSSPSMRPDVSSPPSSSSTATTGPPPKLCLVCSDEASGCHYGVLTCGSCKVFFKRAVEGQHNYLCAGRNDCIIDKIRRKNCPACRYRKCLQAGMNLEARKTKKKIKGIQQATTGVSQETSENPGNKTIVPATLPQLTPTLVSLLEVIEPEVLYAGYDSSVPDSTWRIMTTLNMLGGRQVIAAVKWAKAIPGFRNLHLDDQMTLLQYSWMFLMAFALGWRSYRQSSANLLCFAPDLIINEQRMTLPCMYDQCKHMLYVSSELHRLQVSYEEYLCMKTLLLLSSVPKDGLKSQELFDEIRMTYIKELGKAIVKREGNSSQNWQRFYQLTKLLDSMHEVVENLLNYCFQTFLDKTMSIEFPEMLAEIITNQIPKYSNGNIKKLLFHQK
Experiment: Glucocorticoid receptor competitive binding assay (fluorescence polarization)
Details: competition with TAMRA-labeled dexamethasone, read-out: potent activity (IC50) in the GR binding assay
Experimental: Compounds of the invention were evaluated for binding to the steroid receptor by a fluorescence polarization competitive binding assay. […] The affinity of the probe for the steroid receptor was then determined in a titration experiment. The fluorescence polarization value of the probe in assay buffer was measured on an SLM-8100 fluorometer using the excitation and emission maximum values described above. […]

compound	test.result
Cc1cc(C)c(S(=O)(=O)NC(CSc2c(Cl)cccc2Cl)C(F)(F)F)c(C)c1 (centres unmarked)	≤ 100 nM

Continue with the next compound.
Exercise: Could you tell me which IC50 is on file for Cc1cc(C)c(S(=O)(=O)NC(COc2cc(Cl)ccc2C)C(F)(F)F)c(C)c1 (centres unmarked) ?
Key: ≤ 100 nM
